- system: PI3Kα (p110[H1047R]/p85) kinase (Homo sapiens, UniProt P42336, H1047R)
- Sequence (P42336 whole entry H1047R): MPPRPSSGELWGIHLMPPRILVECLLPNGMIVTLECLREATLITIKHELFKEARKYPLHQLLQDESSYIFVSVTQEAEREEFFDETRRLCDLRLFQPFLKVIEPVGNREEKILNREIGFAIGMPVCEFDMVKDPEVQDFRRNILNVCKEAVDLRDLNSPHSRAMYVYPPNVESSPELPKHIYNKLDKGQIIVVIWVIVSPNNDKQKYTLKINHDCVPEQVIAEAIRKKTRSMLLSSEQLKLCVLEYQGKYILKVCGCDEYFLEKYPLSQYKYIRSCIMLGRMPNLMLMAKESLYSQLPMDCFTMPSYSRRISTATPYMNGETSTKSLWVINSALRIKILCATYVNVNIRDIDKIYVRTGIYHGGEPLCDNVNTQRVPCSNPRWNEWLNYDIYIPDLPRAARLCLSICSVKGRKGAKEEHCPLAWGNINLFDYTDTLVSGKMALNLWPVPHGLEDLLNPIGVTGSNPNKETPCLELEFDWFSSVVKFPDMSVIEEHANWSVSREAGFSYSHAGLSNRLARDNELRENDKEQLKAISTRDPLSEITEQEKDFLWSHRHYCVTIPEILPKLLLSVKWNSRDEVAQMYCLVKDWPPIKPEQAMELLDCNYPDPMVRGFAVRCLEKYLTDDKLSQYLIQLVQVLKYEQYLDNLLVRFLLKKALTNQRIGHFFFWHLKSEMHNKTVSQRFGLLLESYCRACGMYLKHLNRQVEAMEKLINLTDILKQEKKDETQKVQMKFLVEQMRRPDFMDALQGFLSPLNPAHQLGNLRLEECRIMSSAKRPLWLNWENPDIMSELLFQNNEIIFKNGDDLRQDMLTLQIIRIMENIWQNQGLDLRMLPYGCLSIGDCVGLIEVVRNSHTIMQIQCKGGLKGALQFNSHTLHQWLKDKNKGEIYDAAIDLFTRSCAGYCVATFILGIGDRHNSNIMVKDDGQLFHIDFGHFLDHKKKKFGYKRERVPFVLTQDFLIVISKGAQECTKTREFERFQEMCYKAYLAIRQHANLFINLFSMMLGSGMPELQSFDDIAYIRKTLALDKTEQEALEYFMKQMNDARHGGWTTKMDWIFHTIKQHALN
- Sequence (P27986 whole entry partner): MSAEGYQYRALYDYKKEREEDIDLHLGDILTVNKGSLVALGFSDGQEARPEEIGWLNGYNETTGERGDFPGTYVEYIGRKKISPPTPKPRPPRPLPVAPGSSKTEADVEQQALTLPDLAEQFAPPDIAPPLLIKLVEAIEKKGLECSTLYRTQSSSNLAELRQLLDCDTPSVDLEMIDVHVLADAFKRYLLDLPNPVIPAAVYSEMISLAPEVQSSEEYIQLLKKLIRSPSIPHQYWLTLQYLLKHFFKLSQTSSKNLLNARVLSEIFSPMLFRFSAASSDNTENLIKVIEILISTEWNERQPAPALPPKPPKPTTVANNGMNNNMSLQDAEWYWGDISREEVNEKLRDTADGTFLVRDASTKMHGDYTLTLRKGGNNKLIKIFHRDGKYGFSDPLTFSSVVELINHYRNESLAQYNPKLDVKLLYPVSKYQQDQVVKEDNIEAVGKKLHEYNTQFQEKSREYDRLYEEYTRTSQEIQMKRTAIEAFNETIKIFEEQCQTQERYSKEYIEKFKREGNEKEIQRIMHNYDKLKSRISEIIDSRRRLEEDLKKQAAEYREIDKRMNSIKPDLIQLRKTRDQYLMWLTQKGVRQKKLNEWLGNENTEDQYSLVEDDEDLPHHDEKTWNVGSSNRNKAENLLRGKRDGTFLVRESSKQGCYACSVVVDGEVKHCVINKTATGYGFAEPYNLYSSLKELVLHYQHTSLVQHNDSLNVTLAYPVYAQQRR
- assay info: PI3Kα (p110[H1047R]/p85) kinase ADP-Glo Assay
- Type: biochemical
- test parameters: ADP-Glo Assay IC50 ratio, 25 uM ATP
Examples of compounds with documented selectivity: WT/H1047R follow.
quantity name: selectivity: WT/H1047R

{"columns": ["compound", "endpoint value"],
 "data": [
  ["Cc1cc(C(C)Nc2ccccc2C(=O)O)c2cc(-c3ccc(C4(O)CCOCC4)cc3)n(C)c(=O)c2c1 (stereo not drawn)", 25.4],
  ["Cc1cc(C(C)Nc2ccccc2C(=O)O)c2cc(-c3cnn(CC45CC6C[C@H](C4)C[C@H](C6)C5)c3C)n(C)c(=O)c2c1 (stereo partly drawn)", 23.5],
  ["Cc1cc(C(C)Nc2ccccc2C(=O)O)c2cc(-c3ccc(F)cc3)n(-c3nccs3)c(=O)c2c1 (stereo not drawn)", 45.7],
  ["Cc1cc([C@@H](C)Nc2ccccc2C(=O)O)c2cc(-c3ccc(-c4cnn(C)c4)cc3)n(C)c(=O)c2c1", 93.1],
  ["COC1(c2ccc(-c3cc4c(C(C)Nc5ccccc5C(=O)O)cc(C)cc4c(=O)n3C)cc2)CCOCC1 (stereo not drawn)", 18.0],
  ["Cc1cc([C@@H](C)Nc2ccccc2C(=O)O)c2cc(-c3ccc(C(C)(C)O)nc3)n(C)c(=O)c2c1", 16.3],
  ["COc1ccc(-c2cc3c(C(C)Nc4ccccc4C(=O)O)cc(C)cc3c(=O)n2C)cn1 (stereo not drawn)", 8.0],
  ["Cc1cc(C(C)Nc2ccccc2C(=O)O)c2cc(C3=CCN(c4ccccc4)C3)n(C)c(=O)c2c1 (stereo not drawn)", 22.8],
  ["Cc1cc(C(C)Nc2ccccc2C(=O)O)c2cc(-c3cnn(C)c3)n(C)c(=O)c2c1 (stereo not drawn)", 40.9],
  ["Cc1cc(C(C)Nc2c(C(=O)O)nn3c2CCC3)c2cc(-c3ccccc3)n(C)c(=O)c2c1 (stereo not drawn)", 114.5],
  ["Cc1cc(C(C)Nc2ccccc2C(=O)O)c2cc(-c3ccc(C(C)(C)O)cc3)n(C)c(=O)c2c1 (stereo not drawn)", 42.1],
  ["Cc1cc(C(C)Nc2ccccc2C(=O)O)c2cc(-c3ccc(N4CCCC4)cc3)n(C)c(=O)c2c1 (stereo not drawn)", 60.4],
  ["Cc1cc(C(C)Nc2ccccc2C(=O)O)c2cc(C#Cc3ccccc3)n(C)c(=O)c2c1 (stereo not drawn)", 10.1],
  ["CC(Nc1ccccc1C(=O)O)c1cccc2c(=O)n(C)c(-c3ccccc3)cc12 (stereo not drawn)", 108.4],
  ["Cc1cc(C(C)Nc2ccccc2C(=O)O)c2cc(-c3ccc(F)cc3)n(C3CCOC3)c(=O)c2c1 (stereo not drawn)", 45.3],
  ["Cc1cc(C(C)Nc2ccccc2C(=O)O)c2cc(-c3ccc(F)cc3)n(C3COC3)c(=O)c2c1 (stereo not drawn)", 47.6],
  ["Cc1cc(C(C)Nc2sc3ccccc3c2C(=O)O)c2cc(-c3ccccc3)n(C)c(=O)c2c1 (stereo not drawn)", ">113"],
  ["Cc1cc(C(C)Nc2ccccc2C(=O)O)c2cc(-c3ccccn3)n(C)c(=O)c2c1 (stereo not drawn)", 84.2],
  ["Cc1cc(C(C)Nc2ccccc2C(=O)O)c2cc(C3=Cc4ccccc4CC3)n(C)c(=O)c2c1 (stereo not drawn)", 26.4],
  ["Cc1cc(C(C)Nc2ccccc2C(=O)O)c2cc(-c3ccn(-c4ccccc4)c3)n(C)c(=O)c2c1 (stereo not drawn)", 21.4],
  ["Cc1cc([C@@H](C)Nc2ccccc2C(=O)O)c2cc(-c3ccc(F)cc3)n(C)c(=O)c2c1", 39.0],
  ["Cc1cc(C(C)Nc2ccccc2C(=O)O)c2cc(/C=C/c3ccccc3)n(C)c(=O)c2c1 (stereo not drawn)", 2.3],
  ["Cc1cc(C(C)Nc2ccccc2C(=O)O)c2cc(-c3ccc(F)c(F)c3)n(C)c(=O)c2c1 (stereo not drawn)", 14.5],
  ["Cc1cc(C(C)Nc2ccccc2C(=O)O)c2cc(-c3ccc(C4(O)CC4)cc3)n(C)c(=O)c2c1 (stereo not drawn)", 20.6]
]}

Source of measurements: patent US20260125346A1
